All figures here come from the supplement of paper PMC11061612.

# System: Daoy (Other Solid Carcinomas)
# method: Bliss excess, mean over the matrix (fraction); higher = more synergy;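 note: after 72 h of two-drug dosing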

{"columns": ["compound", "Bliss excess"],
 "data": [
  ["CN(CCO)CC[C@H](CSc1ccccc1)Nc1ccc(S(=O)(=O)NC(=O)c2ccc(N3CCC([C@@H](O)c4ccccc4-c4ccc(Cl)cc4)CC3)cc2)cc1S(=O)(=O)C(F)(F)F [AZD4320] + Cn1cnc2c(F)c(Nc3ccc(Br)cc3Cl)c(C(=O)NOCCO)cc21 [Selumetinib] (first compound max 1 µM, 7x7, partner max 3 µM)", 0.129],
  ["CCc1c2c(nc3ccc(O)cc13)-c1cc3c(c(=O)n1C2)COC(=O)[C@]3(O)CC [SN-38] + O=C(c1cc(Cc2n[nH]c(=O)c3ccccc23)ccc1F)N1CCN(C(=O)C2CC2)CC1 [Olaparib] (first compound max 0.3 µM, 7x7, partner max 10 µM)", 0.119],
  ["Cc1c2c(nn1C)CSCc1cc(n(C)n1)CSc1cc(c3ccccc3c1)OCCCc1c(C(=O)O)n(C)c3c-2c(Cl)ccc13 [AZD5991] + CCN(CCO)CCCOc1ccc2c(Nc3cc(CC(=O)Nc4cccc(F)c4)[nH]n3)ncnc2c1 [AZD2811] (first compound max 1 µM, 7x7, partner max 1 µM)", 0.0678]
]}

* * *

# System: KELLY (Neuroblastoma)
# method: Bliss excess, mean over the matrix (fraction); higher = more synergy
assay.endpoint: Bliss excess

{"columns": ["compound", "assay.endpoint", "observed.value"],
 "data": [
  ["CCN(CCO)CCCOc1ccc2c(Nc3cc(CC(=O)Nc4cccc(F)c4)[nH]n3)ncnc2c1 [AZD2811] + C=CCn1c(=O)c2cnc(Nc3ccc(N4CCN(C)CC4)cc3)nc2n1-c1cccc(C(C)(C)O)n1 [AZD1775] (first compound max 1 µM, partner max 1 µM)", "Bliss excess", 0.0569],
  ["O=C(c1cc(Cc2n[nH]c(=O)c3ccccc23)ccc1F)N1CCN(C(=O)C2CC2)CC1 [Olaparib] + CN(CC[C@H](CSC1=CC=CC=C1)NC2=C(C=C(C=C2)S(=O)(=O)NC(=O)C3=CC=C(C=C3)N4CCC(CC4)[C@H](C5=CC=CC=C5C6=CC=C(C=C6)Cl)O)S(=O)(=O)C(F)(F)F)CCO [AZD4320] (first compound max 10 µM, 7x7, partner max 1 µM)", "Bliss excess", 0.134],
  ["Cc1c2c(nn1C)CSCc1cc(n(C)n1)CSc1cc(c3ccccc3c1)OCCCc1c(C(=O)O)n(C)c3c-2c(Cl)ccc13 [AZD5991] + Cc1cc2ncnn2cc1Nc1ncc2c(n1)n(C1CCOCC1)c(=O)n2C [AZD7648] (first compound max 1 µM, 7x7, partner max 10 µM)", "Bliss excess", -0.0368],
  ["C=CCn1c(=O)c2cnc(Nc3ccc(N4CCN(C)CC4)cc3)nc2n1-c1cccc(C(C)(C)O)n1 [AZD1775] + C[C@@H]1COCCN1C2=NC(=NC(=C2)C3(CC3)[S@](=N)(=O)C)C4=C5C=CNC5=NC=C4 [AZD6738] (first compound max 1 µM, partner max 10 µM)", "Bliss excess", -0.0161],
  ["CN(CCO)CC[C@H](CSc1ccccc1)Nc1ccc(S(=O)(=O)NC(=O)c2ccc(N3CCC([C@@H](O)c4ccccc4-c4ccc(Cl)cc4)CC3)cc2)cc1S(=O)(=O)C(F)(F)F [AZD4320] + Nc1ccn([C@@H]2O[C@H](CO)[C@@H](O)C2(F)F)c(=O)n1 [Gemcitabine] (first compound max 1 µM, 7x7, partner max 0.3 µM)", "Bliss excess", 0.0014],
  ["C[C@@H](c1ccc2nccn2c1)n1nnc2ncc(-c3cnn(C)c3)nc21 [Savolitinib] + CC1(C)CCC(CN2CCN(c3ccc(C(=O)NS(=O)(=O)c4ccc(NCC5CCOCC5)c([N+](=O)[O-])c4)c(Oc4cnc5[nH]ccc5c4)c3)CC2)=C(c2ccc(Cl)cc2)C1 [Venetoclax] (first compound max 1 µM, 7x7, partner max 1 µM)", "Bliss excess", -0.0038]
]}
